Ref: ChEMBL document CHEMBL5291721

Target: 5-hydroxytryptamine receptor 1A (Homo sapiens, UniProt P08908); also: assay procedure not described here
Sequence (P08908 whole entry): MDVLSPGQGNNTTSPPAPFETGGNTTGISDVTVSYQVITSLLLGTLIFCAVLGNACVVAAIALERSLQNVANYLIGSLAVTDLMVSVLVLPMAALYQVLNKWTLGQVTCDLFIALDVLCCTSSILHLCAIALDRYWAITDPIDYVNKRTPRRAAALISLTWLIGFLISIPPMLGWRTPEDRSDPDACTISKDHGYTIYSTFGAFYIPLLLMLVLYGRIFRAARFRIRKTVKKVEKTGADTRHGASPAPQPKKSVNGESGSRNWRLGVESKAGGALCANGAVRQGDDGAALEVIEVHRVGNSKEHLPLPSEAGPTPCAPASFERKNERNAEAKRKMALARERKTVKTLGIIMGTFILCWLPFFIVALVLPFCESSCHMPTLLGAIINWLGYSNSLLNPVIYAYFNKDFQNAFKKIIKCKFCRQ
Assay type: functional, cell-based
measuredQuantity: AC50

# compound, valueReported
measured = [
    ("CC(C)(C)NCC(O)COc1cccc2c1CCC(=O)N2 (stereo not given)", "> 10 µM"),
    ("CN1C(C(=O)Nc2ccccn2)=C(O)c2sc(Cl)cc2S1(=O)=O", "> 10 µM"),
    ("Cc1cn([C@H]2C=C[C@@H](CO)O2)c(=O)[nH]c1=O", "> 10 µM"),
    ("C[C@H](N)[C@H](O)c1cccc(O)c1", "> 10 µM"),
    ("NC(=O)OCC(COC(N)=O)c1ccccc1 [FELBAMATE]", "> 10 µM"),
    ("NCC(CC(=O)O)c1ccc(Cl)cc1 (stereo not given)", "> 30 µM"),
    ("CCCCc1ncc(/C=C(\\Cc2cccs2)C(=O)O)n1Cc1ccc(C(=O)O)cc1", "> 10 µM"),
    ("O=C1C(O)=C([C@H]2CC[C@H](c3ccc(Cl)cc3)CC2)C(=O)c2ccccc21", "> 30 µM"),
    ("CS(=O)(=O)c1ccc(C2=C(c3ccccc3)C(=O)OC2)cc1", "> 30 µM"),
    ("Nc1nc(Cl)nc2c1ncn2[C@H]1C[C@H](O)[C@@H](CO)O1", "> 30 µM"),
]

###

Target: Voltage-dependent L-type calcium channel subunit alpha-1C (Rattus norvegicus); also: assay procedure not described here
Sequence (P22002 whole entry): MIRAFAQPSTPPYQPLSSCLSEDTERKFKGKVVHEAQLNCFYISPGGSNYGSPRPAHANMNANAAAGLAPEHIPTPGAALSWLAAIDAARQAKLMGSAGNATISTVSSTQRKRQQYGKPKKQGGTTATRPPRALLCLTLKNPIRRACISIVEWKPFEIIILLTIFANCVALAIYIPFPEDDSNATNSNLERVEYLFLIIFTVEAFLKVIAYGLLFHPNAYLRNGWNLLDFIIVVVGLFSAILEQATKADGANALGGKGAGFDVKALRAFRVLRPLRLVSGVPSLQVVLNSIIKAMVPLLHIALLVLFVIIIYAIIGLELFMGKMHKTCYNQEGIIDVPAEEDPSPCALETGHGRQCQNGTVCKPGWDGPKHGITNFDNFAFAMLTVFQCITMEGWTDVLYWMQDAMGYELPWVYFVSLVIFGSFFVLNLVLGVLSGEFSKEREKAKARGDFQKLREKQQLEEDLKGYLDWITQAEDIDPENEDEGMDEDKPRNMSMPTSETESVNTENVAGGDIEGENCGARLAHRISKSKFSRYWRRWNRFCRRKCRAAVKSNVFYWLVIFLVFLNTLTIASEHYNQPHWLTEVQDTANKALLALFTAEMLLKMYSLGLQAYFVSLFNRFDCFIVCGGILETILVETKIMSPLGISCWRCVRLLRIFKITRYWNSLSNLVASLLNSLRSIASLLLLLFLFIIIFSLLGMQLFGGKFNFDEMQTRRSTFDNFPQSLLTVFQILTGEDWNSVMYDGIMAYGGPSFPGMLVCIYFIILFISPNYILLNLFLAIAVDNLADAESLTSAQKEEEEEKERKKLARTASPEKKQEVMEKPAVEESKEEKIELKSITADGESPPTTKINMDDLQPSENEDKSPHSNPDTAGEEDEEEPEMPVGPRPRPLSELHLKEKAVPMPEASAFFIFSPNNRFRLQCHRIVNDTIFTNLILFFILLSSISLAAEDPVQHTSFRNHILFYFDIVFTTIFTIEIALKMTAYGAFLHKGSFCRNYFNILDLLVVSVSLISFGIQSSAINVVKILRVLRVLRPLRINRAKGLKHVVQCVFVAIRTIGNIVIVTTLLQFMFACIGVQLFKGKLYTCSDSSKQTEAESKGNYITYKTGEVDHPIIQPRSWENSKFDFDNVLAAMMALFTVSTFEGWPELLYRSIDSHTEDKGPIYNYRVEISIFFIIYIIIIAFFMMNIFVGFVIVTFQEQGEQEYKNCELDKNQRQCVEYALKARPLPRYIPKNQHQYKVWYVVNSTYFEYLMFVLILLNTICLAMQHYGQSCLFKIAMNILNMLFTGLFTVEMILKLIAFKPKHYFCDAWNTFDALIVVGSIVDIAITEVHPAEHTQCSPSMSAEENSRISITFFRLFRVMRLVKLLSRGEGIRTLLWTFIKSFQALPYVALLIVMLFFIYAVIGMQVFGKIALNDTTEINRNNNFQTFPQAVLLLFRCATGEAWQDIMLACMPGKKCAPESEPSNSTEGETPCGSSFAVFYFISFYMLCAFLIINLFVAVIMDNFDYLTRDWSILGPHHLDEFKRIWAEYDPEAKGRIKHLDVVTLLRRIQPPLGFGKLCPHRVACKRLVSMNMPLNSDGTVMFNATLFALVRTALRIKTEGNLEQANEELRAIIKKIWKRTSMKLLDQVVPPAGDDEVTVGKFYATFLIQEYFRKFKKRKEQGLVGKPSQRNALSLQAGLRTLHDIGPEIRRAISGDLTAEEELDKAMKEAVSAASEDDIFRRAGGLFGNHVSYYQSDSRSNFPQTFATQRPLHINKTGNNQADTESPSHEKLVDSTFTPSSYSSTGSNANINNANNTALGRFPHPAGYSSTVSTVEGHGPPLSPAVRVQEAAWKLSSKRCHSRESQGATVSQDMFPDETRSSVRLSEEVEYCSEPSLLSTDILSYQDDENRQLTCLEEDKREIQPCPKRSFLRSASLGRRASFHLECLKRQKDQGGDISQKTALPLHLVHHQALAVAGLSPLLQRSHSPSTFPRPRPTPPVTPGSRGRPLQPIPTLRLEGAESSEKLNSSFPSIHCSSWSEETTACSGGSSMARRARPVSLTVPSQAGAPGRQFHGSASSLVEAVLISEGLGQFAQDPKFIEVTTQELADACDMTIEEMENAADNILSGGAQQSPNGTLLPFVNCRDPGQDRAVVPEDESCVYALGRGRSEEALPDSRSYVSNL
Format: functional
Listed here are compounds together with their documented AC50.
measuredQuantity: AC50

# smilesCode, valueReported
data = [
    ("C[C@H](CSC(=O)c1ccccc1)C(=O)N1C[C@@H](Sc2ccccc2)C[C@H]1C(=O)O", "> 10 µM"),
    ("CO[C@H]1C[C@@H]2CC[C@@H](C)[C@@](O)(O2)C(=O)C(=O)N2CCCC[C@H]2C(=O)O[C@H]([C@H](C)C[C@@H]2CC[C@@H](O)[C@H](OC)C2)CC(=O)[C@H](C)/C=C(\\C)[C@@H](O)[C@@H](OC)C(=O)[C@H](C)C[C@H](C)/C=C/C=C/C=C/1C", "> 10 µM"),
    ("CCOC(=O)[C@H](CCc1ccccc1)N[C@@H](C)C(=O)N1C(=O)N(C)C[C@H]1C(=O)O", "> 30 µM"),
]

###

Target: UniProt:P08172
Sequence (P08172 whole entry): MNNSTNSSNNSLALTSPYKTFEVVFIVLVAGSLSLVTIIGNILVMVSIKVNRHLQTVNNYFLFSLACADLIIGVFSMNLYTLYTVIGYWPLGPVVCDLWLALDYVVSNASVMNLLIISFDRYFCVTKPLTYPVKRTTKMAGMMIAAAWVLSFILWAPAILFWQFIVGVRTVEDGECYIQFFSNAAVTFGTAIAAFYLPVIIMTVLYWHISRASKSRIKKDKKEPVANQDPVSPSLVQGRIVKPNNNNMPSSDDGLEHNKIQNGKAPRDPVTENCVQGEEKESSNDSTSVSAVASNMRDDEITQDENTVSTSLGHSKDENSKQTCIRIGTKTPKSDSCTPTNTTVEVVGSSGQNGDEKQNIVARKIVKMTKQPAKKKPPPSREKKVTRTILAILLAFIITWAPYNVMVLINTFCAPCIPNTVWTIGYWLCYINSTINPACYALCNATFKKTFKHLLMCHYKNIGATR
Format: functional, cell-based
In this section we review reported AC50 values for a set of compounds.

# compound, systemUnderTest, AC50
rows = [
    ("CC(=O)OCC(=O)[C@@]12N=C(C)O[C@@H]1C[C@H]1[C@@H]3CCC4=CC(=O)C=C[C@]4(C)[C@H]3[C@@H](O)C[C@@]12C", "UniProt:P08172", "> 30 µM"),
    ("Cc1cc(O)c(C(=O)N[C@@H](C(=O)N[C@@H]2C(=O)N3C(C(=O)O)=C(CSc4nnnn4C)CS[C@H]23)c2ccc(O)cc2)cn1 [CEFPIRAMIDE]", "UniProt:P08172", "> 30 µM"),
    ("CC(=O)NCCCS(=O)(=O)O [ACAMPROSATE]", "UniProt:P08172", "> 30 µM"),
    ("C/C(O)=C(\\C#N)C(=O)Nc1ccc(C(F)(F)F)cc1 [TERIFLUNOMIDE]", "UniProt:P08172", "> 30 µM"),
    ("Cc1cn([C@H]2C=C[C@@H](CO)O2)c(=O)[nH]c1=O", "UniProt:P08172", "> 10 µM"),
]

###

Molecular target: UniProtKB P11229
Sequence (P11229 whole entry): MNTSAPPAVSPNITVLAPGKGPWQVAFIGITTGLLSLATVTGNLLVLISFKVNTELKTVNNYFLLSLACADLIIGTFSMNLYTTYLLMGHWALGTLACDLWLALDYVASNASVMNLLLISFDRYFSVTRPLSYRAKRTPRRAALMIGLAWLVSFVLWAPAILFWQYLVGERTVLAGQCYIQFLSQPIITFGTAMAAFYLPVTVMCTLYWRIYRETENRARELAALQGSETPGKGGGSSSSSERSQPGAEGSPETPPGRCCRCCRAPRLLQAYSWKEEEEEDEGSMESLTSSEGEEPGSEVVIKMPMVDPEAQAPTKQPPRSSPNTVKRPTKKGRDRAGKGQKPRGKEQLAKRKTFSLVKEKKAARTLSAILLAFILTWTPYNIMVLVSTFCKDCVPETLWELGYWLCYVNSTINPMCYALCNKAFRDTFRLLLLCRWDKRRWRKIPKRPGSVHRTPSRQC
Format: functional, cell-based

# compound, AC50
records = [
    ("O=C(OCC(O)CO)c1ccccc1Nc1ccnc2cc(Cl)ccc12 (centres undefined)", "7.51 µM"),
    ("COc1ccc(C(=O)Nc2ccccc2CCC2CCCCN2C)cc1 (centres undefined) [ENCAINIDE]", "> 30 µM"),
    ("OC(c1ccccc1)(c1ccccc1)C12CC[N+](CCOCc3ccccc3)(CC1)CC2", "0.0053 µM"),
    ("CC(C)COC(=O)OCN1C(=O)CN(CCN2CC(=O)N(COC(=O)OCC(C)C)C(=O)C2)CC1=O", "> 30 µM"),
    ("CO[C@]12C[C@@H](COC(=O)c3cncc(Br)c3)CN(C)[C@@H]1Cc1cn(C)c3cccc2c13", "1.86 µM"),
    ("CCCCS(=O)(=O)N[C@@H](Cc1ccc(OCCCCC2CCNCC2)cc1)C(=O)O", "> 10 µM"),
    ("N=C1CCCN1Cc1[nH]c(=O)[nH]c(=O)c1Cl", "> 30 µM"),
    ("CCC(=O)NCC[C@@H]1CCc2ccc3c(c21)CCO3", "> 30 µM"),
    ("CCOC(=O)/C=C1\\SC(N2CCCCC2)C(=O)N1C (centres undefined)", "> 30 µM"),
]

###

Biological target: Beta-2 adrenergic receptor (Homo sapiens); also: assay procedure not described here
Sequence (P07550 whole entry): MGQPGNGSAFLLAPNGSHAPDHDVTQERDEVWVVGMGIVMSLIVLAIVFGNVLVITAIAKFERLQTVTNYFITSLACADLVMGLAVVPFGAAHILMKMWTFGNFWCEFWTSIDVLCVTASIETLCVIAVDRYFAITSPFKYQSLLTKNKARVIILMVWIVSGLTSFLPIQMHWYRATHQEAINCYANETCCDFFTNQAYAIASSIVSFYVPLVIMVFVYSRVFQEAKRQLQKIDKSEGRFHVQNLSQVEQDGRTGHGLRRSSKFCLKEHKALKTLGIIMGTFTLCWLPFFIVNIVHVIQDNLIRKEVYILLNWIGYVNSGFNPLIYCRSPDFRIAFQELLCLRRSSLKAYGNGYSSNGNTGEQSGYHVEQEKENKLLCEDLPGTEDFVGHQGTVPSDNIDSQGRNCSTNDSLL
measuredQuantity: AC50

# compound, systemUnderTest, measuredQuantity, valueReported
records = [
    ("C[C@H](CSC(=O)c1ccccc1)C(=O)N1C[C@@H](Sc2ccccc2)C[C@H]1C(=O)O", "Beta-2 adrenergic receptor (Homo sapiens)", "AC50", "> 10 µM"),
    ("COc1ccc(C(=O)Nc2ccccc2CCC2CCCCN2C)cc1 (centres undefined) [ENCAINIDE]", "Beta-2 adrenergic receptor (Homo sapiens)", "AC50", "> 10 µM"),
    ("COC(=O)C1=C(C)NC(C)=C(C(=O)OC(C)(C)CN(C)CCC(c2ccccc2)c2ccccc2)C1c1cccc([N+](=O)[O-])c1 (centres undefined)", "Beta-2 adrenergic receptor (Homo sapiens)", "AC50", "> 30 µM"),
    ("COc1ccccc1OCCNCC(O)c1ccc(C)c(S(N)(=O)=O)c1 (centres undefined)", "Beta-2 adrenergic receptor (Homo sapiens)", "AC50", "0.1 µM"),
]

###

Target or system UniProtKB P32238: recorded AC50 listed per item.
Sequence (P32238 whole entry): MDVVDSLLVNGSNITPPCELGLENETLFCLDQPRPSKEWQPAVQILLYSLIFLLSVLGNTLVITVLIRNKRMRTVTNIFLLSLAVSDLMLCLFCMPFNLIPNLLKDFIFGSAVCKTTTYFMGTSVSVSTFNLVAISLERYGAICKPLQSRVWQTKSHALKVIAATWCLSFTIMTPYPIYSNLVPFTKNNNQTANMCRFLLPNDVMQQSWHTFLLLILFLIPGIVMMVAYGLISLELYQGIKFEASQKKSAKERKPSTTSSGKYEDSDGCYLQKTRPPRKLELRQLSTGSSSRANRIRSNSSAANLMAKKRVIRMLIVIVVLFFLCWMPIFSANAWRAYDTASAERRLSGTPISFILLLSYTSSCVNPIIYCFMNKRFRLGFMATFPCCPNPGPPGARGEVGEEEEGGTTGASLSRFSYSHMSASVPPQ

# compound, AC50
measured = [
    ("COc1ccc(-c2ccc3cc(C(=O)O)ccc3c2)cc1C12CC3CC(CC(C3)C1)C2", "> 30 µM"),
    ("COC(=O)C1=C(C)NC(C)=C(C(=O)OC2CCCN(Cc3ccccc3)C2)C1c1cccc([N+](=O)[O-])c1 (stereo not given)", "> 30 µM"),
    ("CN1C(=O)CCS(=O)(=O)C1c1ccc(Cl)cc1 (stereo not given)", "> 10 µM"),
    ("COc1ccc(CCNCC(O)COc2cccc(C)c2)cc1OC (stereo not given)", "> 10 µM"),
    ("CC(=O)NCCCS(=O)(=O)O [ACAMPROSATE]", "> 30 µM"),
    ("CCCCCCOc1ccccc1C(N)=O [EXALAMIDE]", "> 30 µM"),
    ("CC(C)Cn1cnc2c(N)nc3ccccc3c21", "> 10 µM"),
    ("CCOc1ccccc1OCC1CNCCO1 (stereo not given)", "> 30 µM"),
    ("Nc1nc(Cl)nc2c1ncn2[C@H]1C[C@H](O)[C@@H](CO)O1", "> 30 µM"),
    ("CN(C)CC/C=C1\\c2ccccc2CSc2ccccc21 [DOTHIEPIN]", "> 30 µM"),
]

###

Consider compounds characterized by their AC50 with Thromboxane A2 receptor (Homo sapiens, UniProt P21731).
Sequence (P21731 whole entry): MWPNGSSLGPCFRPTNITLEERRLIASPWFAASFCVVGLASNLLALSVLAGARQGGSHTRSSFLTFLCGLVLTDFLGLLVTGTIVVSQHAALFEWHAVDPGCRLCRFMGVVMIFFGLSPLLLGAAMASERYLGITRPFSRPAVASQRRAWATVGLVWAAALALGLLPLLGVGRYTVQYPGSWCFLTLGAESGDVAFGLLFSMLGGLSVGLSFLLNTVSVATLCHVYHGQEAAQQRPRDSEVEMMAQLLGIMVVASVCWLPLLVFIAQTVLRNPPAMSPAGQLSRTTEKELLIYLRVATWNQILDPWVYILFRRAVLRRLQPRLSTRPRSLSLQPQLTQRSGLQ
measuredQuantity: AC50

# compound, valueReported
data = [
    ("COc1ccc(CCNCC(O)COc2cccc(C)c2)cc1OC (centres undefined) [BEVANTOLOL]", "> 10 µM"),
    ("Cc1ccc(S(=O)(=O)NC(=O)NN2CC3CCCC3C2)cc1 (centres undefined) [GLICLAZIDE]", "> 10 µM"),
    ("Cc1nc([N+](=O)[O-])cn1-c1ccc([N+](=O)[O-])cc1 [NITREFAZOLE]", "> 30 µM"),
    ("Cn1nnc2c(C(N)=O)ncn2c1=O [TEMOZOLOMIDE]", "> 30 µM"),
    ("CC(=O)OCC(=O)[C@@]12N=C(C)O[C@@H]1C[C@H]1[C@@H]3CCC4=CC(=O)C=C[C@]4(C)[C@H]3[C@@H](O)C[C@@]12C [DEFLAZACORT]", "> 30 µM"),
    ("C[C@]12CC[C@H]3[C@@H](CCC4=CC(=O)CC[C@@]43C)[C@@H]1CC[C@@H]2O [TESTOSTERONE]", "> 10 µM"),
    ("O=[N+]([O-])c1cn2c(n1)OC[C@@H](OCc1ccc(OC(F)(F)F)cc1)C2 [PRETOMANID]", "> 30 µM"),
    ("CC[C@H]1[C@@H](O)[C@@H]2[C@H](CC[C@]3(C)[C@@H]([C@H](C)CCC(=O)O)CC[C@@H]23)[C@@]2(C)CC[C@@H](O)C[C@@H]12 [OBETICHOLIC ACID]", "> 30 µM"),
    ("CCCCc1ncc(/C=C(\\Cc2cccs2)C(=O)O)n1Cc1ccc(C(=O)O)cc1 [EPROSARTAN]", "> 10 µM"),
    ("CCOC(=O)[N-]c1cn(N2CCOCC2)n[o+]1 [MOLSIDOMINE]", "> 30 µM"),
    ("COc1ccc(-c2ccc3cc(C(=O)O)ccc3c2)cc1C12CC3CC(CC(C3)C1)C2", "> 30 µM"),
    ("CC1(C)NC(=O)N(c2ccc([N+](=O)[O-])c(C(F)(F)F)c2)C1=O [NILUTAMIDE]", "> 30 µM"),
    ("C[N+]1(C)CCC(OC(=O)C(O)(c2ccccc2)C2CCCC2)C1 (centres undefined) [GLYCOPYRRONIUM BROMIDE]", "> 30 µM"),
    ("COc1ccc2c3c1O[C@H]1[C@@H](O)C=C[C@H]4[C@@H](C2)N(C)CC[C@@]341 [CODEINE]", "> 30 µM"),
    ("Cc1cc(O)c(C(=O)N[C@@H](C(=O)N[C@@H]2C(=O)N3C(C(=O)O)=C(CSc4nnnn4C)CS[C@H]23)c2ccc(O)cc2)cn1 [CEFPIRAMIDE]", "> 30 µM"),
    ("CN(C)CC/C=C1\\c2ccccc2CSc2ccccc21 [DOTHIEPIN]", "> 30 µM"),
    ("O=C(NCCN1CCOCC1)c1ccc(Cl)cc1 [MOCLOBEMIDE]", "> 10 µM"),
    ("CN1C(=O)C(O)N=C(c2ccccc2)c2cc(Cl)ccc21 (centres undefined) [TEMAZEPAM]", "> 30 µM"),
    ("Clc1ccc2nsnc2c1NC1=NCCN1 [TIZANIDINE]", "> 30 µM"),
    ("C[C@](N)(Cc1ccc(O)c(O)c1)C(=O)O [METHYLDOPA]", "> 10 µM"),
    ("COc1ccccc1OCC(O)CN1CCN(CC(=O)Nc2c(C)cccc2C)CC1 (centres undefined) [RANOLAZINE]", "> 30 µM"),
    ("CN1CCN(CC/C=C2/c3ccccc3Sc3ccc(S(=O)(=O)N(C)C)cc32)CC1 [THIOTHIXENE]", "> 30 µM"),
    ("CC(C)Cn1cnc2c(N)nc3ccccc3c21 [IMIQUIMOD]", "> 30 µM"),
    ("Clc1ccc(CCCOCCCN2CCCCC2)cc1 [PITOLISANT]", "> 30 µM"),
    ("C=CCN1CCCC1CNC(=O)c1cc(S(N)(=O)=O)cc(OC)c1OC (centres undefined) [VERALIPRIDE]", "> 30 µM"),
    ("O=C(NCCNCC(O)COc1ccc(O)cc1)N1CCOCC1 (centres undefined) [XAMOTEROL]", "> 30 µM"),
    ("Nc1nc(/C(=C/CC(=O)O)C(=O)N[C@@H]2C(=O)N3C(C(=O)O)=CCS[C@H]23)cs1 [CEFTIBUTEN]", "> 30 µM"),
    ("O=C(O)C1=C(CSc2nnnn2CS(=O)(=O)O)CS[C@@H]2[C@H](NC(=O)[C@H](O)c3ccccc3)C(=O)N12 [CEFONICID]", "> 30 µM"),
    ("CN1C(=O)OC(C)(C)C1=O [TRIMETHADIONE]", "> 10 µM"),
    ("COc1cc(NC(C)CCCN)c2ncccc2c1 (centres undefined) [PRIMAQUINE]", "> 30 µM"),
    ("C[C@H](N)[C@H](O)c1cccc(O)c1 [METARAMINOL]", "> 10 µM"),
    ("C=CCc1ccccc1OCC(O)CNC(C)C (centres undefined) [ALPRENOLOL]", "> 30 µM"),
    ("C[C@@H]1O[C@@H](O[C@@H]2C=C3CC[C@@H]4[C@H](CC[C@]5(C)[C@@H](c6ccc(=O)oc6)CC[C@]45O)[C@@]3(C)CC2)[C@H](O)[C@H](O)[C@H]1O [PROSCILLARIDIN]", "> 30 µM"),
    ("CC(C)C[C@H]1C(=O)N2CCC[C@H]2[C@]2(O)O[C@](NC(=O)[C@@H]3C=C4c5cccc6[nH]c(Br)c(c56)C[C@H]4N(C)C3)(C(C)C)C(=O)N12 [BROMOCRIPTINE]", "> 30 µM"),
]
